Listed compounds paired with reported pEC50
Biological target: F508del-CFTR (Homo sapiens (Human), UniProt P13569, DEL508-508)
Sequence (P13569 other isoform, or with tags, fused parts or gaps del F508-F508): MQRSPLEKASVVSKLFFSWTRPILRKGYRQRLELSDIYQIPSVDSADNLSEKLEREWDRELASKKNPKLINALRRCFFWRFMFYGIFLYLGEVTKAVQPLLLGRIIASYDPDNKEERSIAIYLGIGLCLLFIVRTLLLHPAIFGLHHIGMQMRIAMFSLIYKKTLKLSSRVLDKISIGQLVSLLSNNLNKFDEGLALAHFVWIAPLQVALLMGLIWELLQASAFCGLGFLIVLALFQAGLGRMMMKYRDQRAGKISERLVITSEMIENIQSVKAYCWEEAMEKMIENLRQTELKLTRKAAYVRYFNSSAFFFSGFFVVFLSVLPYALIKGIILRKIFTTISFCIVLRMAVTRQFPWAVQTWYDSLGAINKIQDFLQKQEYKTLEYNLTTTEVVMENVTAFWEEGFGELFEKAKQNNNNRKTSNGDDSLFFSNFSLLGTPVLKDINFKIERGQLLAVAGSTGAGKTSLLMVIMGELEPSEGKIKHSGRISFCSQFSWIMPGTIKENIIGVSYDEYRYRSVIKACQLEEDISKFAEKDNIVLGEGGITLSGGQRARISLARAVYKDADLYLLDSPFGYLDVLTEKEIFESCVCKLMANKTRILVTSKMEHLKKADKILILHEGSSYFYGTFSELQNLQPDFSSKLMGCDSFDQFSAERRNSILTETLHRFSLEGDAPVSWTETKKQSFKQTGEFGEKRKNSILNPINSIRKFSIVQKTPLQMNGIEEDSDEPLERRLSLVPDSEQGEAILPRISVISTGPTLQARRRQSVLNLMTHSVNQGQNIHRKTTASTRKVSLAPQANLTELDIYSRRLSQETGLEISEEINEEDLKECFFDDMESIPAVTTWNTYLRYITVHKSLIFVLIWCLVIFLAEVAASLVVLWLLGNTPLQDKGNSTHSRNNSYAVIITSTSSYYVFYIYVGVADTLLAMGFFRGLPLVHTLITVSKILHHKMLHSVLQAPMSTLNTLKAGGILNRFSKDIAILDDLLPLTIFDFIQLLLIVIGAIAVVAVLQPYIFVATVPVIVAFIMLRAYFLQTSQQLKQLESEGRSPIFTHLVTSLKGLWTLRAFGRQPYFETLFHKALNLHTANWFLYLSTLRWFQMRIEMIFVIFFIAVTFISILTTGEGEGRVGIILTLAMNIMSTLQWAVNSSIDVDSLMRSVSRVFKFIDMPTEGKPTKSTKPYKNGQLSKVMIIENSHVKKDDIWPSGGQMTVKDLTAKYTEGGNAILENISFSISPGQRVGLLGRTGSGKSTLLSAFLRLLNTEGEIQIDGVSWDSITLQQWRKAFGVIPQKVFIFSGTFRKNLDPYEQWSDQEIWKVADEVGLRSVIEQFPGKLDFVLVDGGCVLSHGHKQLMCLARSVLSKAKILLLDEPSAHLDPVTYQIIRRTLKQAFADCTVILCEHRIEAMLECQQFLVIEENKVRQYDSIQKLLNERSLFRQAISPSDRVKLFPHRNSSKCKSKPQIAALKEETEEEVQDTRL
Test: Membrane potential optical (fluorescent voltage sensing dye, FLIPR III) HTS assay for F508del-CFTR modulators
Assay type: cell-based
Conditions: F508del NIH 3T3 cells, assay 5A-A1; read-out: CFTRdF508 EC50
pEC50: −log10 of the molar value.

Use the examples below as a reference point.
                                   compound  measured_quantity        result
0  C[C@@H]1CN(c2nc(-n3ccc(OCC(O)C4(C(F)(F)F)CC4)n3)ccc2C(=O)NS(=O)(=O)c2ccccc2)C(C)(C)C1 (stereo partly drawn)              pEC50  6.00 to 7.00
1  Cc1ccccc1S(=O)(=O)NC(=O)c1ccc(-n2ccc(OCCC3(C(F)(F)F)CC3)n2)nc1N1C[C@@H](C)CC1(C)C              pEC50        > 7.00
2  Cc1cc(C#N)ccc1S(=O)(=O)NC(=O)c1ccc(-n2ccc(OCC3(C(F)(F)F)CC3)n2)nc1N1C[C@@H](C)CC1(C)C              pEC50  6.00 to 7.00
3  C[C@@H]1CN(c2nc(-n3ccc(OCC4C(C)(C)C4(C)C)n3)ccc2C(=O)NS(=O)(=O)c2ccccc2)C(C)(C)C1              pEC50        > 7.00

Q: Answer with reported pEC50 of COc1ccc(S(=O)(=O)NC(=O)c2ccc(-n3ccc(OCC4(C(F)(F)F)CC4)n3)nc2N2C[C@@H](C)CC2(C)C)c(OC)c1
Result: 6.00 to 7.00

Q: Answer with reported pEC50 of [2H]C([2H])([2H])[C@@H]1CN(c2nc(-n3ccc(OCCC4(C(F)(F)F)CC4)n3)ccc2C(=O)NS(=O)(=O)c2ccccc2)C(C)(C)C1([2H])[2H]
Result: > 7.00
